- test.system: T1, His-tagged human HtrA1 protease domain (human, UniProt Q92743 161-367)
- T1 construct: His-tagged protease domain; also called huHtrA1-PD-His; huHtrA1-PD
- T1 sequence (Q92743 other isoform, or with tags, fused parts or gaps limits assumed): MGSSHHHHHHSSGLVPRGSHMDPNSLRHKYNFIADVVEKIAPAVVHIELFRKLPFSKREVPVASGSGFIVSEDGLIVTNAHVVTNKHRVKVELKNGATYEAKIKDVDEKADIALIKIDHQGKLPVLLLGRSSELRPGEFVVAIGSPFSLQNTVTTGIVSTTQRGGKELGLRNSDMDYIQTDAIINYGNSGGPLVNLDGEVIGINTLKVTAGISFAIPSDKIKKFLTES
- assay.text: BIACORE SPR, Fab analyte, Human HtrA1-PD (N=2)
quantity: kon
Mention the unit after the number when you answer.

Prompt: What does the record list as kon for EP_EG (Fab, V domains shown, also called h15H6.v2 LC-N94E LC-P95 HC-D55E HC-G56 Fab; copies: 1 + 1) VH: EVQLVQSGAEVKKPGASVKVSCKASGYTFTDSEMHWVRQAPGQGLEWIGGVDPETEGAAYNQKFKGRATITRDTSTSTAYLELSSLRSEDTAVYYCTRGYDYDYALDYWGQGTLVTVSS VL: DIQMTQSPSSLSASVGDRVTITCRASSSVNFIHWYQQKPGKAPKPLISATSNLASGVPSRFSGSGSGTDFTLTISSLQPEDFATYYCQQWSSEPWTFGQGTKVEIK ?
Response: 450000 M⁻¹ s⁻¹
